Test system: H9c2 cardiomyocytes, 2-deoxyglucose stress, ATP luminescence, 2 h
Assay: H9c2 cell survival under 2-deoxyglucose stress – uHTS hits, dose response (AID 588780)
Active and inactive are the calls of the source.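 The calls were made as follows: active = compounds whose fitted half-maximal concentration in the cell-protection dose series is at or below a set limit; inactive = the rest.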
Reported IC50 values for a set of molecules

# count of solved cases: 4
Input line: Quick check: IC50 of CC(C)(C)NC(=O)COC(=O)c1c2c(nc3ccccc13)CCC2 ?
Output line: 15.1 µM

Input line: Find the recorded IC50 belonging to Cc1ccc(-c2n[nH]c(=O)c3ccccc23)cc1N and report it.
Output line: 17.5 µM

Input line: Name the recorded IC50 for CC(C)(C)OC(=O)CNC(=O)c1[nH]cnc1C(=O)NCC(=O)OCc1ccccc1 .
Output line: > 79 µM (inactive)

Input line: // returns reported IC50 for input CCOc1ccccc1Nc1nnc(SCc2nnc(-c3cc(OC)c(OC)c(OC)c3)o2)s1
Output line: 11.1 µM

Others:
Input line: Request the reported IC50 associated with COc1ccc2cc3cc(C(=O)NCCc4ccc(OC)c(OC)c4)oc3nc2c1
Output line: 7.71 µM

Input line: # input molecule: Cn1nc(-c2ccccc2F)c2cc(C(=O)Nc3ccc4c(c3)OCCO4)sc21 ; wanted: its IC50
Output line: > 79 µM (inactive)

Input line: I'd like to know its IC50. The molecule in question is N#Cc1c(-c2ccco2)cc(-c2cccnc2)nc1N
Output line: 12.1 µM

Input line: Suppose we examine the molecule O=c1c2ccccc2oc2nc(-c3ccco3)n(Cc3ccccc3)c(=O)c12 ; what IC50 value has been reported?
Output line: > 79 µM (inactive)

Input line: Name the recorded IC50 for Cc1ncc(CO)c2cc(C(=O)Nc3ccccc3Cl)c(=Nc3cccc(C(N)=O)c3)oc12 .
Output line: > 79 µM (inactive)

---

Test system: H9c2 cardiomyocytes, 2-deoxyglucose stress, ATP luminescence, 2 h
Assay: H9c2 cell survival under 2-deoxyglucose stress – uHTS hits, dose response (AID 588780)
Active and inactive are the calls of the source.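 The calls were made as follows: active = compounds whose fitted half-maximal concentration in the cell-protection dose series is at or below a set limit; inactive = the rest.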
Quantity Kind: IC50

Input line: # returns recorded IC50 (system: H9c2 cardiomyocytes, 2-deoxyglucose stress, ATP luminescence, 2 h) for Cc1cc(C)c2ccc(N)nc2c1O
Output line: > 79 µM (inactive)

Input line: Form field: IC50 recorded for O=C(CCc1nc2ccccc2c(=O)[nH]1)Nc1ccc(F)cc1 with H9c2 cardiomyocytes, 2-deoxyglucose stress, ATP luminescence, 2 h (enter value)
Output line: 27.6 µM

Input line: Write down the reported IC50 of CCOC(=O)Cc1csc(SCc2cc(=O)oc3cc(O)ccc23)n1 , test system: H9c2 cardiomyocytes, 2-deoxyglucose stress, ATP luminescence, 2 h.
Output line: 51.9 µM (inactive)

Input line: Identify the measured IC50 of O=C(CCc1nc2ccccc2c(=O)[nH]1)OCC(=O)N1CCc2ccccc21 for H9c2 cardiomyocytes, 2-deoxyglucose stress, ATP luminescence, 2 h.
Output line: > 79 µM (inactive)

Input line: Given the entry CCOC(=O)CSc1nc2sc(C)c(C)c2c(=O)[nH]1 , what IC50 was observed with H9c2 cardiomyocytes, 2-deoxyglucose stress, ATP luminescence, 2 h?
Output line: > 79 µM (inactive)

More entries:
Input line: Provide value of IC50 for this record tested with H9c2 cardiomyocytes, 2-deoxyglucose stress, ATP luminescence, 2 h: O=C1c2ccccc2NC(c2ccc(-c3cccc([N+](=O)[O-])c3)o2)N1O (stereo unspecified)
Output line: 28.4 µM

Input line: Recorded IC50 for N#Cc1ccccc1OCC(=O)Nc1nc(-c2ccccn2)cs1 with H9c2 cardiomyocytes, 2-deoxyglucose stress, ATP luminescence, 2 h, please?
Output line: > 79 µM (inactive)

Input line: Tell me reported IC50 for COc1ccnc(Oc2ccc(F)cc2)c1C(=O)N/C=N/OCc1ccc(Cl)cc1Cl , tested with H9c2 cardiomyocytes, 2-deoxyglucose stress, ATP luminescence, 2 h.
Output line: 12.3 µM

Input line: Give recorded IC50 with H9c2 cardiomyocytes, 2-deoxyglucose stress, ATP luminescence, 2 h for the following molecule: Cc1cc(=O)oc2cc(OCC(=O)N3CCN(C(=O)C4COc5ccccc5O4)CC3)c(Cl)cc12 (stereo unspecified)
Output line: 12.7 µM

Input line: Lab request: please report IC50 under test system H9c2 cardiomyocytes, 2-deoxyglucose stress, ATP luminescence, 2 h for C=CCOC(=O)C1=C[C@H](c2cn(C(C)=O)c3ccccc23)C[C@H](OCc2ccc(CO)cc2)O1
Output line: 17.9 µM

Input line: Query the reported IC50 for H9c2 cardiomyocytes, 2-deoxyglucose stress, ATP luminescence, 2 h; item: O=C(CN1CCN(S(=O)(=O)c2ccc(Br)cc2)CC1)c1ccc(O)c(O)c1
Output line: 19.8 µM

---

Recorded IC50 by entry
Test system: H9c2 cardiomyocytes, 2-deoxyglucose stress, ATP luminescence, 2 h
Assay: H9c2 cell survival under 2-deoxyglucose stress – uHTS hits, dose response (AID 588780)
The source made the active and inactive calls.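 How the source made its calls: active means compounds whose fitted half-maximal concentration in the cell-protection dose series is at or below a set limit; inactive means the rest.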

# count of solved cases: 6
Input line: Could you tell me which IC50 is on file for COc1ccc(C(C(=O)NCc2ccccc2)N(Cc2cccs2)C(=O)c2cnccn2)cc1 (configuration not stated) ?
Output line: 16.1 µM

Input line: Can you look up the measured IC50 of NC(=O)c1cccc2c1C(=O)N(C1CCCCC1)C2 for me?
Output line: > 79 µM (inactive)

Input line: Would you mind telling me what IC50 value was observed for CC(=O)NC(CCc1ccc(Cl)c(Cl)c1)c1cccc(O)c(=O)c1 (configuration not stated) ?
Output line: > 79 µM (inactive)

Input line: Which measured IC50 value corresponds to O=C(COC(=O)Cn1[nH]c(=O)c2ccccc2c1=O)Nc1ncc(Cl)cc1Cl ?
Output line: > 79 µM (inactive)

Input line: Given the molecule Nc1ncc(-c2ccccc2)n1CC1CCCO1 (configuration not stated) , what is its reported IC50?
Output line: > 79 µM (inactive)

Input line: Could you share which IC50 value was measured for COc1ccc(CNn2c(-c3cccs3)nc3ccccc3c2=O)cc1OC ?
Output line: 11.8 µM

***
Input line: Fill in: IC50 of CCOc1ncccc1C(=O)Nc1cccc(-c2nc3cccnc3s2)c1 is ___
Output line: > 79 µM (inactive)

Input line: For the molecule c1ccc(-c2oc3ncnc(NCCN4CCOCC4)c3c2-c2ccccc2)cc1 , what IC50 is on record?
Output line: 23.2 µM

---

Test system: H9c2 cardiomyocytes, 2-deoxyglucose stress, ATP luminescence, 2 h
Test: H9c2 cell survival under 2-deoxyglucose stress – uHTS hits, dose response (AID 588780)
Calls of active or inactive are those of the source.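 Rule for the calls: active = compounds whose fitted half-maximal concentration in the cell-protection dose series is at or below a set limit; inactive = the rest.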
Outcome (select one): 1 (active), -1 (inactive)

# example entries with known answers
Input line: For this compound, state the assay outcome: CCn1c(SCC(=O)N2CCN(c3ccccc3)CC2)nc2c(c1=O)SC(C)C2 (stereo not given)
Output line: -1

Input line: Recorded test outcome, item CC(=O)N1CCN(C(=O)CCc2nc3ccccc3c(=O)[nH]2)CC1
Output line: -1

Query compound follows.
Input line: Each compound tested received a call. Report the one for COc1ccc(Br)cc1C(=O)Nc1cccc(NC(=O)c2ccco2)c1 .
Output line: -1

---

Tested on: H9c2 cardiomyocytes, 2-deoxyglucose stress, ATP luminescence, 2 h
Assay: H9c2 cell survival under 2-deoxyglucose stress – uHTS hits, dose response (AID 588780)
Activity calls are given as the source filed them.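 Rule for the calls: active = compounds whose fitted half-maximal concentration in the cell-protection dose series is at or below a set limit; inactive = the rest.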
Choose one outcome from this list and give only that: Y for active, N for inactive

Input line: I would be grateful if you could indicate the recorded call for Cn1c(=O)c2[nH]c(NN=Cc3ccc(Br)cc3)nc2n(C)c1=O .
Output line: N

Input line: Status in this test for C[C@@H](OC(=O)c1[nH]cnc1C(=O)NCc1ccc(CNC(=O)OC(C)(C)C)cc1)c1ccccc1 ?
Output line: N

Input line: Given CCCCCCn1c(C)nc2c(c1=O)c1nc3ccccc3nc1n2/N=C/c1ccco1 , state the outcome it received in this test.
Output line: N

Input line: Hey, what did the test say about Cc1ccc2nc(-c3ccccc3)cc(C(=O)NNC(=O)c3csc(N4CCOCC4)n3)c2c1 ?
Output line: N

# next molecule below
Input line: State the result this test recorded for Cc1cc(OCC(=O)N2CCOCC2)cc2oc(=O)c3ccccc3c12 .
Output line: Y

---

System: H9c2 cardiomyocytes, 2-deoxyglucose stress, ATP luminescence, 2 h
Assay: H9c2 cell survival under 2-deoxyglucose stress – uHTS hits, dose response (AID 588780)
Active and inactive are the calls of the source.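 The calls were made as follows: active = compounds whose fitted half-maximal concentration in the cell-protection dose series is at or below a set limit; inactive = the rest.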
The categories you may choose from are active, inactive

Study these solved cases before continuing.
Input line: Recorded call for COc1ccc(C(=O)Nc2cccc(/C(C)=N/NC(=O)c3ccc([N+](=O)[O-])c(C)c3)c2)cc1OC ?
Output line: inactive

Input line: Give the logged outcome of this assay for the following compound: CC(=O)Oc1ccc2c(C)cc(=O)oc2c1
Output line: inactive

Input line: Hi, sorry to bother you, what did the test record for COC(=O)c1ccc(OCC(=O)Nc2ccccc2C(=O)NC2CC2)cc1 ?
Output line: active

Input line: Hello, I am checking results. What call was entered for COc1ccc(-n2c(/C=C/c3ccc(O)cc3)nc3ccccc3c2=O)cc1 ?
Output line: active

Moving on to the next compound.
Input line: Test call for this compound, please: COC(=O)c1ccc(C(=O)OC)c(NC(=O)COC(=O)C23CC4CC(CC(O)(C4)C2)C3)c1
Output line: active
